Recorded values, source patent US20230364079A1.

For reference, IC50 measured on BTK wild-type kinase (Homo sapiens (Human), UniProt Q06187):

compound: COc1cccc(Oc2ccc(-c3nc(C45CCC(CO)(CC4)OC5)n4c(Cl)cnc(N)c34)cc2)c1F [Compound 39]
measured on: BTK wild-type kinase (Homo sapiens (Human), UniProt Q06187)
Sequence (Q06187 whole entry): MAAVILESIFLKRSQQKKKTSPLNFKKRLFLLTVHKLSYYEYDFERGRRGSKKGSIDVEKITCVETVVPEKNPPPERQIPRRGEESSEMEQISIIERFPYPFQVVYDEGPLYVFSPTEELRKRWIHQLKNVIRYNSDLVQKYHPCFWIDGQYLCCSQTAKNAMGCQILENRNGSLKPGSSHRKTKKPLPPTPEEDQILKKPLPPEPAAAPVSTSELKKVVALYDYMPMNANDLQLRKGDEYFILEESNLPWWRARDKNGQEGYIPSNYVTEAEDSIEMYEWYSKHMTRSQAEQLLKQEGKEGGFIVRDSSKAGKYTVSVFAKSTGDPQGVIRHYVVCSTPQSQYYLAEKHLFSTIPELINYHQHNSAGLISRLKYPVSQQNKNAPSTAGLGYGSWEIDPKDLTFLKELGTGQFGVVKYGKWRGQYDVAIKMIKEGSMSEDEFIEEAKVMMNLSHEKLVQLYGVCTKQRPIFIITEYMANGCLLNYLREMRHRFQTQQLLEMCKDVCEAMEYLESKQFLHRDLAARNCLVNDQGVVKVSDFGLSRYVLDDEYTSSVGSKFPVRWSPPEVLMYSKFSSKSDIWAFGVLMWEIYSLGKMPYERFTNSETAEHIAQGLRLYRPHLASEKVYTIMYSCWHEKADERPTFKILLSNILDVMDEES
IC50: < 5 nM
--
compound: Nc1nccn2c(C34CCC(CO)(CC3)OC4)nc(-c3ccc(Oc4cccc(OC(F)(F)F)c4F)cc3)c12 [Compound 95]
measured on: BTK wild-type kinase (Homo sapiens (Human), UniProt Q06187)
IC50: 5 to 20 nM
--
compound: Nc1nccn2c(C34CCC(CO)(CC3)OC4)nc(-c3ccc(C(=O)Nc4ccccn4)cc3F)c12 [Compound 35]
measured on: BTK wild-type kinase (Homo sapiens (Human), UniProt Q06187)
IC50: 5 to 20 nM
--
compound: Nc1ncc(Cl)n2c(C3CCC(CO)OC3)nc(-c3ccc(C(=O)Nc4cc(C(F)(F)F)ccn4)cc3)c12 (centres unmarked) [Compound 110]
measured on: BTK wild-type kinase (Homo sapiens (Human), UniProt Q06187)
IC50: < 5 nM
--
compound: COc1cccc(Oc2ccc(-c3nn(C4CCC(CO)OC4)c4ccnc(N)c34)cc2)c1F (centres unmarked) [Compound 30]
measured on: BTK wild-type kinase (Homo sapiens (Human), UniProt Q06187)
IC50: 5 to 20 nM
